B1: CCNC (parent)
chain: QSSHYLQWILDKQDLLKERQKDLK

variants of: B1; assay: protein stability index of a GFP-peptide fusion (GPS, HEK-293T) (PSI 1-6); higher = more stable; details: c terminus: a fixed tail appended;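 note: lentivirally expressed fusions sorted by FACS into six bins by GFP to DsRed ratio, PSI derived from sequencing read proportions per bin multiplied by bin number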
quantityKind: protein stability index
Just the number, please.

Would you please look over these solved cases?
{"biopolymerSequence": "QSSHYLQWISDKQDLLKERQKDLK [L10S]", "protein stability index": 4}
{"biopolymerSequence": "GSSHYLQWILDKQDLLKERQKDLK [Q1G]", "protein stability index": 3.6}
{"biopolymerSequence": "QSSHYLQWILDKDDLLKERQKDLK [Q13D]", "protein stability index": 3.82}
{"biopolymerSequence": "QSSHYLQWILDKQDLLKERQKDLI [K24I]", "protein stability index": 2.21}
{"biopolymerSequence": "QSTHYLQWILDKQDLLKERQKDLK [S3T]", "protein stability index": 2.42}
{"biopolymerSequence": "QSWHYLQWILDKQDLLKERQKDLK [S3W]", "protein stability index": 2.32}
{"biopolymerSequence": "QSSHYLQWILDKQDLLSERQKDLK [K17S]", "protein stability index": 3.66}
{"biopolymerSequence": "QSSHYLQWILDKQDRLKERQKDLK [L15R]", "protein stability index": 2.78}

// Input: QSSHYLQWILDKQDLLKERQKDHK [L23H] . Output its protein stability index only. 3.31

// Input: QSSHYLQWILDKQDLLKERQKDLS [K24S] . Output its protein stability index only. 2.81

// Input: QSSHYLQWILDKQDLLKEDQKDLK [R19D] . Output its protein stability index only. 3.93

// Input: QSSHYLQWGLDKQDLLKERQKDLK [I9G] . Output its protein stability index only. 3.67

// Input: QSKHYLQWILDKQDLLKERQKDLK [S3K] . Output its protein stability index only. 2.82

// Input: QSSHYLQWILDWQDLLKERQKDLK [K12W] . Output its protein stability index only. 1.52

// Input: QSSHYLQWILDKEDLLKERQKDLK [Q13E] . Output its protein stability index only. 2.71

// Input: QSSHYLQWILDIQDLLKERQKDLK [K12I] . Output its protein stability index only. 1.71

// Input: QSSHYLQWILDKQDLLKVRQKDLK [E18V] . Output its protein stability index only. 2.82

// Input: QSSHYLQWILDKQDLLKERIKDLK [Q20I] . Output its protein stability index only. 1.66

// Input: QSSMYLQWILDKQDLLKERQKDLK [H4M] . Output its protein stability index only. 3.97

// Input: QSSHYLQWILDLQDLLKERQKDLK [K12L] . Output its protein stability index only. 1.72

// Input: QSSHYLQWILDKQDLLAERQKDLK [K17A] . Output its protein stability index only. 3.21

// Input: QSSHYFQWILDKQDLLKERQKDLK [L6F] . Output its protein stability index only. 3.52

// Input: QSSHQLQWILDKQDLLKERQKDLK [Y5Q] . Output its protein stability index only. 4.29

// Input: QSSHYLQWILDKQDLLKERGKDLK [Q20G] . Output its protein stability index only. 2.98

// Input: QSNHYLQWILDKQDLLKERQKDLK [S3N] . Output its protein stability index only. 3.17

// Input: QSSHYLQWILPKQDLLKERQKDLK [D11P] . Output its protein stability index only. 3.13
